subject_of_test: SHP2-C SH2
experiment_notes: SH2 binding enrichment of the phosphorylated peptide, bacterial display (enrichment ratio); higher = better substrate or ligand; peptides without Tyr show the background
Reported SH2 binding enrichment values are given for each entry in this list.
Kindly provide the number alone.

Guide cases for SH2 binding enrichment, answers given:
STLEVYSCHPP [IL21R_Y317]: 0.559
CEETFYTMKVN [MASP2_Y401]: 0.788
KVALVYGQMNQ [ATP5F1B_Y269_E274Q]: 0.636
QRIHNYYEHRY [HCN4_Y554_D553N]: 2.06

Enquiry: SH2 binding enrichment lookup needed for VQNIVYRTASI [CYP39A1_Y102] , thanks.
Return: 0.889

Enquiry: SH2 binding enrichment lookup needed for AKKKMYSCKTK [AGXT_Y231_R233C] , thanks.
Return: 1.59

Enquiry: SH2 binding enrichment lookup needed for LMLVLYGRIFR [HTR1A_Y215] , thanks.
Return: 1.25

Enquiry: SH2 binding enrichment lookup needed for KRGIDYILRHM [FRMD1_Y225] , thanks.
Return: 1.99

Enquiry: SH2 binding enrichment lookup needed for MENFIYESMQF [CYP19A1_Y361_R365Q_YF] , thanks.
Return: 0.691

Enquiry: SH2 binding enrichment lookup needed for SARSAYQEAID [SFN_Y151_M155I] , thanks.
Return: 0.705

Enquiry: SH2 binding enrichment lookup needed for AAFNKYDQERF [CDC73_Y293_R292K_YF] , thanks.
Return: 0.776

Enquiry: SH2 binding enrichment lookup needed for GFSRHCEDGFP [CTNND1_Y217_Y217C_YF] , thanks.
Return: 0.663

Enquiry: SH2 binding enrichment lookup needed for VREIRCQGGNR [VWF_Y1570_Y1570C] , thanks.
Return: 0.591

Enquiry: SH2 binding enrichment lookup needed for RASGIYFVPKG [APBB1IP_Y340_YF] , thanks.
Return: 1.11

====

subject_of_test: EPHB2 (UniProt P29323)
Sequence (P29323 whole entry, looked up): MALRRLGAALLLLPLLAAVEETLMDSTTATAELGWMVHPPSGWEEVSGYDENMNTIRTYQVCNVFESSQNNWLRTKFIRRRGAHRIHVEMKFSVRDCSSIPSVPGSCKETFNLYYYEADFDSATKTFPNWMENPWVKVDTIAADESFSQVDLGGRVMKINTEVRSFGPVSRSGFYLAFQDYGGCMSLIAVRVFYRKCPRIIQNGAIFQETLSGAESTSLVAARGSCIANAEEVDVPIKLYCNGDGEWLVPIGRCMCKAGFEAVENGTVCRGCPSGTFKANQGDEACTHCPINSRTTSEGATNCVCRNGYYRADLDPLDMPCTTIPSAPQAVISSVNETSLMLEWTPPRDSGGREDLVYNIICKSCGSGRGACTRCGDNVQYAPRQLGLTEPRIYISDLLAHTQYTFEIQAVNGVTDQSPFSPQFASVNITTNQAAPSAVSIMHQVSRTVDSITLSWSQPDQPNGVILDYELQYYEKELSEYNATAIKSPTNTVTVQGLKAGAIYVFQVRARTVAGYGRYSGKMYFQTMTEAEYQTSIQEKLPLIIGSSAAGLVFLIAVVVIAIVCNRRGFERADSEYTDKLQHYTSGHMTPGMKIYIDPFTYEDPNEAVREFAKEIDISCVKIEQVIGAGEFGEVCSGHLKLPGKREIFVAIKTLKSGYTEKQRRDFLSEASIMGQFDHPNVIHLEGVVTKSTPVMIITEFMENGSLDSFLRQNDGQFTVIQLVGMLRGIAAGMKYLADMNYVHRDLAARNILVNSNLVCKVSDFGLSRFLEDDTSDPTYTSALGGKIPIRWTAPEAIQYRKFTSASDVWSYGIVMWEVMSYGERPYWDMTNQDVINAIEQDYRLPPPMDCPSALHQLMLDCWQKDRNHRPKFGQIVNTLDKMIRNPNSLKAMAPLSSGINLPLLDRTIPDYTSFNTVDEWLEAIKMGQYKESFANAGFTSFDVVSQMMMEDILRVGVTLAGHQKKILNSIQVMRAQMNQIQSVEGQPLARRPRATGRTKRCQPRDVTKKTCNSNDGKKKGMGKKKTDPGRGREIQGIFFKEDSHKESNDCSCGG
experiment_notes: phosphorylation enrichment, bacterial display (enrichment ratio); higher = better substrate or ligand; peptides without Tyr show the background
Reported phosphorylation enrichment values are given for each entry in this list.
Kindly provide the number alone.

EEALFYLTRVE [SET_Y119_H118Y_YF]: 0.828

Enquiry: phosphorylation enrichment lookup needed for LSRDVYEEDSF [RET_Y900_YF] , thanks.
Return: 0.908

Enquiry: phosphorylation enrichment lookup needed for LTRDIYKNDYY [ROS1_Y2110_A2106T] , thanks.
Return: 2.79

Enquiry: phosphorylation enrichment lookup needed for ETAENYLGHTA [HSPA9_Y181] , thanks.
Return: 0.652

====

subject_of_test: Fyn (UniProt P06241)
Sequence (P06241 whole entry, looked up): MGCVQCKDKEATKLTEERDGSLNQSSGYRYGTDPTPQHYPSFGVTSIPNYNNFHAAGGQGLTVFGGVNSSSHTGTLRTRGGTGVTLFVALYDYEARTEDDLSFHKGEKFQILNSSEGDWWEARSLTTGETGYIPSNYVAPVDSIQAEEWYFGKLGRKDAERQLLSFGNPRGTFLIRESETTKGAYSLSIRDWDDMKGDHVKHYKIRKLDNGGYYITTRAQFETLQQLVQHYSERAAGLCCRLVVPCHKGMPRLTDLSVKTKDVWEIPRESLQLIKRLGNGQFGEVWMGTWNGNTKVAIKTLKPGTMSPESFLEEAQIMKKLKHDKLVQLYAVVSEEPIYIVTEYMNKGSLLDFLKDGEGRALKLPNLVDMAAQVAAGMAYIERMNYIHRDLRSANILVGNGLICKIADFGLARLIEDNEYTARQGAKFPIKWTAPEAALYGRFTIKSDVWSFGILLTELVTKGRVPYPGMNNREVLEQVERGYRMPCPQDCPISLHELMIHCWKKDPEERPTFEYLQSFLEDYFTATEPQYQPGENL
experiment_notes: phosphorylation enrichment, bacterial display (enrichment ratio); higher = better substrate or ligand; peptides without Tyr show the background
Entry flag: true if phosphorylation enrichment reaches 0.5; false if it does not.

Worked examples follow.
QGIIIYKAAYF [SLC25A4_Y187_R188K]: true
SARSAYQEAID [SFN_Y151_M155I]: false
IVEFAYNDKAI [PUM3_Y259_YF]: false
ADLTEYLSTHF [UQCRC1_Y219_YF]: true

Enquiry: I'd appreciate it if you could say whether LTAEVYFPSIK [C5orf64_Y60] has phosphorylation enrichment at least equal to 0.5.
Return: true

Enquiry: I'd appreciate it if you could say whether SHNKFYMLVAH [MFSD8_Y134_R139H_YF] has phosphorylation enrichment at least equal to 0.5.
Return: true

Enquiry: I'd appreciate it if you could say whether YETDYYRKGGK [INSR_Y1190] has phosphorylation enrichment at least equal to 0.5.
Return: false

====

Reported SH2 binding enrichment values are given for each entry in this list.
subject_of_test: c-Src SH2
experiment_notes: SH2 binding enrichment of the phosphorylated peptide, bacterial display (enrichment ratio); higher = better substrate or ligand; peptides without Tyr show the background
Kindly provide the number alone.

Guide cases for SH2 binding enrichment, answers given:
MTYMFYRENLR [NLRP14_Y443_V441M]: 0.721
DPYHVYIKNRV [KCNE3_Y95]: 1.09
QQTFTYDSGIH [JUP_Y22_YF]: 0.563

Enquiry: SH2 binding enrichment lookup needed for YSTPPYLLEAA [BRIP1_Y921_S919P] , thanks.
Return: 1.08

Enquiry: SH2 binding enrichment lookup needed for TTTQAYRVDER [PRKN_Y391] , thanks.
Return: 0.465

Enquiry: SH2 binding enrichment lookup needed for SNNYIYTTLGV [FAM83B_Y639_K640T] , thanks.
Return: 0.725

Enquiry: SH2 binding enrichment lookup needed for AGREIYESEKC [TTN_Y4424_D4427E] , thanks.
Return: 0.844

Enquiry: SH2 binding enrichment lookup needed for SPYAVYRFFTF [RPGRIP1_Y826] , thanks.
Return: 0.447

Enquiry: SH2 binding enrichment lookup needed for EFISEYCGEII [EZH2_Y641] , thanks.
Return: 0.617

Enquiry: SH2 binding enrichment lookup needed for FQEKSYIKGTS [LCTL_Y331_L326F] , thanks.
Return: 0.416

Enquiry: SH2 binding enrichment lookup needed for IEELTYVIKQD [STX5_Y137_I138V] , thanks.
Return: 0.354

Enquiry: SH2 binding enrichment lookup needed for GVRLYYRVRES [RB1_Y454_M457R] , thanks.
Return: 0.393

Enquiry: SH2 binding enrichment lookup needed for ETLLYYGYRRS [POR_Y564_C566Y] , thanks.
Return: 0.474

Enquiry: SH2 binding enrichment lookup needed for MENFIYESMQY [CYP19A1_Y361_R365Q] , thanks.
Return: 0.786

====

Reported phosphorylation enrichment values are given for each entry in this list.
Tested on: c-Src
experiment_notes: phosphorylation enrichment, bacterial display (enrichment ratio); higher = better substrate or ligand; peptides without Tyr show the background

Guide cases for phosphorylation enrichment, answers given:
FSQQVYRVNLS [FAT4_Y480]: 0.623
TENAGYFFQVS: 0.384

Enquiry: phosphorylation enrichment lookup needed for CTTIHYNFMSN [TP53_Y234_C238S_YF] , thanks.
Return: 0.483

Enquiry: phosphorylation enrichment lookup needed for FLAVGYHMPHI [IDS_Y225_K227M] , thanks.
Return: 0.334

Enquiry: phosphorylation enrichment lookup needed for FDNPIYQKTTE [LDLR_Y828_V827I] , thanks.
Return: 1.44

Enquiry: phosphorylation enrichment lookup needed for GTFEDYVEGLR [MYL6_Y89_YF] , thanks.
Return: 0.416

Enquiry: phosphorylation enrichment lookup needed for RDGDRYFKGIV [DCX_Y64_N60D] , thanks.
Return: 0.382

Enquiry: phosphorylation enrichment lookup needed for ARLDEYIAIAK [RCOR3_Y46_K42R] , thanks.
Return: 0.458

Enquiry: phosphorylation enrichment lookup needed for NFRTTCVNANE [KCNH2_Y475_Y475C] , thanks.
Return: 0.428

====

Test system: c-Src
experiment_notes: phosphorylation enrichment, bacterial display (enrichment ratio); higher = better substrate or ligand; peptides without Tyr show the background
assay_readout: phosphorylation enrichment
Kindly provide the number alone.

Guide cases for phosphorylation enrichment, answers given:
YQKDVYDIPPS [NEDD9_Y177]: 3.26
IKKLIYVFLVI [JAGN1_Y42_H44Y_YF]: 0.424
GGQVFHNSEFG [FLT4_Y1333_Y1333H_YF]: 0.377
SLDLSYYTTSS [EMD_Y181_P183T]: 0.755
LMIKEYLTKEL [BAG3_Y457_E455K]: 0.353

Enquiry: phosphorylation enrichment lookup needed for ENELTYYCCKK [CD59_Y86] , thanks.
Return: 2.74

Enquiry: phosphorylation enrichment lookup needed for LTRDIYKNDYY [ROS1_Y2110_A2106T] , thanks.
Return: 2.86

Enquiry: phosphorylation enrichment lookup needed for CEDGNYSPEIS [PTDSS1_Y424_T423N] , thanks.
Return: 0.618

Enquiry: phosphorylation enrichment lookup needed for TLQWMYGCDVG [HLA-B_Y123_S121W] , thanks.
Return: 0.354

Enquiry: phosphorylation enrichment lookup needed for YSNKLHYQLEQ [PDPR_Y109_Y109H] , thanks.
Return: 0.553

====

System: Fer (mouse)
experiment_notes: phosphorylation enrichment, bacterial display (enrichment ratio); higher = better substrate or ligand; peptides without Tyr show the background
assay_readout: phosphorylation enrichment
Kindly provide the number alone.

Guide cases for phosphorylation enrichment, answers given:
DRFANYIEKVR [DES_Y122]: 0.41
FGSSSSGGAGG [RPA2_Y14_Y14S_YF]: 0.417
RPPFTYATLIR [FOXP3_Y342]: 0.55
ATFRGYDSDNP [MMUT_Y146_H143Y_YF]: 0.553
TLSGTYQFIIA [FOXL2_Y81_I80T_YF]: 1.44

Enquiry: phosphorylation enrichment lookup needed for REHTVYGEPRK [MAGEA4_Y240] , thanks.
Return: 0.52

Enquiry: phosphorylation enrichment lookup needed for VGNAAYQAGSL [STK36_Y1181_P1185S] , thanks.
Return: 0.436

Enquiry: phosphorylation enrichment lookup needed for FSLPAYMDRRD [COX4I1_Y38] , thanks.
Return: 0.432

Enquiry: phosphorylation enrichment lookup needed for AEARMYGVLPW [PLP1_Y207_D203E] , thanks.
Return: 0.477

Enquiry: phosphorylation enrichment lookup needed for AVEDQYYRVDC [FHL1_Y207_C209R] , thanks.
Return: 0.718

Enquiry: phosphorylation enrichment lookup needed for EYQLPYYNTVP [BMPR1A_Y457_M460T] , thanks.
Return: 1.94

Enquiry: phosphorylation enrichment lookup needed for VAVVDYVEPSP [TXNRD2_Y70] , thanks.
Return: 0.52

Enquiry: phosphorylation enrichment lookup needed for PVQDAYQKVVA [HBB_Y131_A129D] , thanks.
Return: 0.493

Enquiry: phosphorylation enrichment lookup needed for RGVAHYILQTF [SLC39A4_Y359_T357A] , thanks.
Return: 0.554

Enquiry: phosphorylation enrichment lookup needed for IDPYIYTPFGS [CYP3A4_Y432] , thanks.
Return: 1.9

Enquiry: phosphorylation enrichment lookup needed for TLMNAYSSRSH [KIF11_Y231] , thanks.
Return: 0.514
